# PROTOCOL_DESCRIPTION: Determination of aldehyde capture rate (nonenal as model aldehyde, HPLC quantification)
# COND: 225 minutes; higher absolute value of the slope = higher capture rate
# Description: In the aldehyde capture test disclosed in the present invention, the stable lipid metabolite, nonenal, was used as the model aldehyde to react with the compound of the Example. The specific protocol was as follows. 0.05 mM of the compounds of the Examples of the present invention were precisely weighed respectively and dissolved in 1.2 mL of a mixed solution (v/v=1:1) of triolein (Aladdin, G105172-5g) and linoleic acid (Aladdin, L100442-25g), respectively. […]
MEASURED_ATTRIBUTE: Capture rate (slope of the capture curve per unit time)
Lab note: record the figure alone, no unit after it.

## Task Answer with the recorded Capture rate (slope of the capture curve per unit time) for the compound listed here: CC(C)(O)c1cc2cc3c(cc2cc1N)OCCOCCOCCO3
## Result −0.07

## Task Answer with the recorded Capture rate (slope of the capture curve per unit time) for the compound listed here: CC(C)(O)c1nc2cc3oc(N4CCOCC4)nc3cc2cc1N
## Result −0.03

## Task Answer with the recorded Capture rate (slope of the capture curve per unit time) for the compound listed here: Cn1cnc2cc3cc(N)c(C(C)(C)O)nc3cc21
## Result −0.08

## Task Answer with the recorded Capture rate (slope of the capture curve per unit time) for the compound listed here: Cc1nc2cc3nc(C(C)(C)O)c(N)cc3cc2o1
## Result −0.06

Moving on to another compound below.
## Task Answer with the recorded Capture rate (slope of the capture curve per unit time) for the compound listed here: CC(C)(O)c1cc2cc3c(cc2cc1N)OCCO3
## Result −0.07
